What Survival was measured for each of the following?
tested on: Trypanosoma evansi; assay: Antimicrobial activity against Trypanosoma evansi STIB 806K infected in NMRI mouse assessed as host survival days at 2 mg/kg, ip administered 3 to 6 days after infection for 4 consecutive days; assay type: functional; settings: route intraperitoneal
All answers are understood in days, so give the number only.

(Q) Check the records and state Survival for N=C(N)c1ccc(-c2ccc(-c3ccc(C(=N)N)nc3)o2)nc1
(A) 60

(Q) Check the records and state Survival for COc1cc(C(=N)N)ccc1OCCCOc1ccc(C(=N)N)cc1OC
(A) 29

(Q) Check the records and state Survival for N=C(N)c1ccc(-c2cccc(-c3nc4ccc(C(=N)N)cc4[nH]3)c2)nc1
(A) 18

(Q) Check the records and state Survival for Cc1cc(C(=N)N)cn2cc(-c3ccc(-c4ccc(C(=N)N)cc4)o3)nc12
(A) 13

(Q) Check the records and state Survival for N=C(N)c1ccc(-c2ccc(-c3ccc(C(=N)N)o3)cn2)cc1
(A) 28
